Data origin, for the record: PubChem BioAssay (EPA / NIEHS)

Assay method text: APR_HepG2_CellCycleArrest_72hr: Apredica 72-hour HepG2 Assay for Cell Cycle Arrest (AID 2282914)
Assay setup: high-content imaging, actives raise or lower the signal
Calls of active or inactive are those of the source. How the source made its calls: active means hit-call score of the fitted dose curve at least 0.9, where 1 is the maximum; inactive means score below 0.9.
Your response should consist of one outcome taken from true = active, false = inactive

Observe how each entry below is paired with its result.
{"Compound": "COP(=O)(OC)OC=C(Cl)Cl", "Classification": "false"}
{"Compound": "Cc1[nH]c(=O)n(C(C)(C)C)c(=O)c1Cl", "Classification": "false"}
{"Compound": "[2H]C1([2H])[n+]2ccccc2-c2cccc[n+]2C1([2H])[2H]", "Classification": "true"}
{"Compound": "CCCN(CCC)c1c([N+](=O)[O-])cc(C(F)(F)F)cc1[N+](=O)[O-]", "Classification": "false"}
{"Compound": "O=C(NC(=O)c1c(F)cccc1F)Nc1ccc(OC(F)(F)C(F)OC(F)(F)F)c(Cl)c1 (stereo unspecified)", "Classification": "false"}

Here's the next entry for you.
Per the assay record, what outcome was assigned to `O=C(O)C(F)(F)C(F)(F)C(F)(F)C(F)(F)C(F)(F)C(F)(F)C(F)(F)F` ?
false
